B1: CPEB3 Ribozyme (parent)
chain: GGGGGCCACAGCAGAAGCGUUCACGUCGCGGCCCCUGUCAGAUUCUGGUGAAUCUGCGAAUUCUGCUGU

variants of: B1; assay: self-cleavage, relative activity (ratio to wild type); higher = more cleavage; co-transcriptional
measurement label: self-cleavage
One number for each entry.

# annotated cases, reported self-cleavage shown
* A16C U36A | 0.115
* A23C U44C | 0.874
* A42U G58A | 0.923
* U49A A60G | 0.915
* C7U U38C | 0.819
* G31U U38G | 0.124

Report self-cleavage for every entry below.
1. U55C C66U
2. G3C G37C

1: 0.816; 2: 0.0266

Can you give me self-cleavage for all of these, one by one?
1. G5C A8G
2. G19A G41U
3. U20A U61G
4. C12A G68A
5. C7U A10C

[0.242, 0.142, 0.137, 0.843, 0.994]

Form field: reported self-cleavage of A52C U69G 1.05
